# HPTPβ (Homo sapiens (Human)): IC50 values follow
# Sequence (P23467 23-1997): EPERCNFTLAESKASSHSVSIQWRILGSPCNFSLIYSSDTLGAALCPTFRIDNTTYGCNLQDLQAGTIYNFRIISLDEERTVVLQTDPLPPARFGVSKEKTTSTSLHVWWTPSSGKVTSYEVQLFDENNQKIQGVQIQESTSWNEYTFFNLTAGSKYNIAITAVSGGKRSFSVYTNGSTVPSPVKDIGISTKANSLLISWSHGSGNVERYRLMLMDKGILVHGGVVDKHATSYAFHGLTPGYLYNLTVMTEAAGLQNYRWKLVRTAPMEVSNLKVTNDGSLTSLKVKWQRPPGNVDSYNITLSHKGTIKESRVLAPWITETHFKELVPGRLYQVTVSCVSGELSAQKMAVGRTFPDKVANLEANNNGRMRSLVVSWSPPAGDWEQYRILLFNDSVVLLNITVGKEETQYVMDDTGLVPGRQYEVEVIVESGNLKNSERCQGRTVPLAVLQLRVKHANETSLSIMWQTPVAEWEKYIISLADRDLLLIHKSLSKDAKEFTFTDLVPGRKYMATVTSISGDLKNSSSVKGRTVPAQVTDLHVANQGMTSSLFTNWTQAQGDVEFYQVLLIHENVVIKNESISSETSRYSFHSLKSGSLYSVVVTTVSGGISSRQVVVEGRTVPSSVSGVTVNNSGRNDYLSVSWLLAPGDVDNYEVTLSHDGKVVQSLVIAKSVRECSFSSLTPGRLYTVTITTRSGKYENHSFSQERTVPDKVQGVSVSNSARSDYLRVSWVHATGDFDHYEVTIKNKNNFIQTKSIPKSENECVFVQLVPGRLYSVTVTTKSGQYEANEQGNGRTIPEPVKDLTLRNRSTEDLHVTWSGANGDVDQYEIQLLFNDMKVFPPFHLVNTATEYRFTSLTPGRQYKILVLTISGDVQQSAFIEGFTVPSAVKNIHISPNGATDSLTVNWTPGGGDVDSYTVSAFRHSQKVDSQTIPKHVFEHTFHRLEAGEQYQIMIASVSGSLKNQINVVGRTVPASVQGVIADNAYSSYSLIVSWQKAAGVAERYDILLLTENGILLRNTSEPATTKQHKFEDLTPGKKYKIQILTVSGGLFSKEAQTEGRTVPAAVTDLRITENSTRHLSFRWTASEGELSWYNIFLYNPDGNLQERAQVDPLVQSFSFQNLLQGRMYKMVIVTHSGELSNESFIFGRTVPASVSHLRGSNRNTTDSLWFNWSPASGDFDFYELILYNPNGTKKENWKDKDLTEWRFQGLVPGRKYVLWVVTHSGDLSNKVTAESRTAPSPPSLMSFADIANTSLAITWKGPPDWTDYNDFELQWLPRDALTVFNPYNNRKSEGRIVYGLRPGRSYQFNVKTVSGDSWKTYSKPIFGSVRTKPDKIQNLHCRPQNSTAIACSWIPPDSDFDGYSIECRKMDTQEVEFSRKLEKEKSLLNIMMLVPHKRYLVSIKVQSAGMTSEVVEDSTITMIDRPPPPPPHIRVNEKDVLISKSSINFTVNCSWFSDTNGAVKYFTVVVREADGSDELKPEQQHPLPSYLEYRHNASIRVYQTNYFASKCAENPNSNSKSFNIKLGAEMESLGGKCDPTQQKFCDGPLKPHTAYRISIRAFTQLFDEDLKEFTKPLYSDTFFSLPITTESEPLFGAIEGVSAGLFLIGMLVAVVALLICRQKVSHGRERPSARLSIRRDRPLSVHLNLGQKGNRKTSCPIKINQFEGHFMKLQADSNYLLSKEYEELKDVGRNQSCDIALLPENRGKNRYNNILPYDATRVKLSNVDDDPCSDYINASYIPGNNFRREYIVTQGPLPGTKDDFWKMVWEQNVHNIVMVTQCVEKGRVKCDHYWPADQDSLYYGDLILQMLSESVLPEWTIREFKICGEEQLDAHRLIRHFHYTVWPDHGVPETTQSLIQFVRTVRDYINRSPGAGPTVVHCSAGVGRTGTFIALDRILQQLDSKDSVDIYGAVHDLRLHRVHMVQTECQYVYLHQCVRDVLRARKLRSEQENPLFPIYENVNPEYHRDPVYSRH

[
  {
    "molecule": "COC(=O)Cc1csc([C@H](Cc2ccc(NS(=O)(=O)O)cc2)NC(=O)OC(C)(C)C)n1 [AA70]",
    "IC50 [µM]": 0.132
  },
  {
    "molecule": "Cc1nc([C@H](Cc2ccc(NS(=O)(=O)O)cc2)NC(=O)OC(C)(C)C)cs1 [AA64]",
    "IC50 [µM]": 0.033
  }
]
